Listing: Ki of selected compounds
Molecular target: SNARK (Homo sapiens, UniProt Q9H093)
Construct: 12.5 ng of recombinant SNARK was incubated with CHKtide and ATP; purchased Promega (Madison, WI)
Sequence (Q9H093 1-628): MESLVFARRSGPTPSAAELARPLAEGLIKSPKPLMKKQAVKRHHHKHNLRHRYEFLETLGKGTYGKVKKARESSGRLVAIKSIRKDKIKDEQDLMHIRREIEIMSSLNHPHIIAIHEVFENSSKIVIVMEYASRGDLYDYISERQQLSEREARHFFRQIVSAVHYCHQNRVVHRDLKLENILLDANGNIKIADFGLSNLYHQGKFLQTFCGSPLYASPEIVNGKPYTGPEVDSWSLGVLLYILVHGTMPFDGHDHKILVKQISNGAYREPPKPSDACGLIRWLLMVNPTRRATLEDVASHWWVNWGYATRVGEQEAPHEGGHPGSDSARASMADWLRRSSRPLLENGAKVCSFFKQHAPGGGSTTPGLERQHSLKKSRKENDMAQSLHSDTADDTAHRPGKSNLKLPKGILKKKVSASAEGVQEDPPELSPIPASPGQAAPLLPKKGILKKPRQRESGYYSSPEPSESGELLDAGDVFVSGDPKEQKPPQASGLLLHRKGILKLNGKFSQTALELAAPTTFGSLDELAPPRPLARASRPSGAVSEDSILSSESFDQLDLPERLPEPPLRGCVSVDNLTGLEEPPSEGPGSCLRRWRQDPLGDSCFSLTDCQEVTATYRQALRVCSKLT
Assay: In vitro luminescence SNARK kinase assay (NUAK2 Kinase Enzyme System)
Type: biochemical
Conditions: 14.8-148 μM CHKtide, 0, 20, 40 μM compound; Dixon plot; read-out: Ki for CHKtide
Method: NUAK2 Kinase Enzyme System was purchased from Promega (Madison, WI). Kinase assay was performed according to the manufacturer's protocol and the luminescence was monitored (n = 4). The mode of enzymatic inhibition was calculated bySigmaplot (Systat Software, San Jose, CA), with the best fit models determined by the Akaike Information Criterion.
// return numeric value only (unit: µM, not printed)

compound: CN(C)C(=S)SSC(=S)N(C)C [TR, tetramethylthiuram disulfide]
observed: 138

Let us examine a further case.
Response field Ki (SNARK (Homo sapiens, UniProt Q9H093)) for item CCN(CC)C(=S)SSC(=S)N(CC)CC : 64.3
